Ref: ChEMBL document CHEMBL1201862

# System: K562
# experiment: NCI tumour cell line growth inhibition, 48 h
Calls of active or inactive are those of the source. Rule as the data show it: active = GI50 up to about 1.1 µM and inactive = higher. Square brackets hold non-standard residues; d marks the D form. Peptide text beside a SMILES is read from it. * marks the point of attachment. Boc = CC(C)(C)OC(=O)*; Lac = C[CH](O)C(=O)O; OBn = c1ccc(CO*)cc1
Please go through the items and note down their GI50.

// GI50 lookup, molecule = C=CCN1C(=O)CNC1=S , result: 40.6 µM (inactive)

Summary for this molecule, COc1ccc2nc(NC(=O)C(=O)CC(=O)c3ccc([N+](=O)[O-])cc3)sc2c1 : GI50 is > 100 µM (inactive)

The reported GI50 of the molecule Cc1ccc([S+](c2ccccc2)c2cc(C)ccc2C)cc1.O=C(OC(C(=O)[O-])C(OC(=O)c1ccccc1)C(=O)O)c1ccccc1 (stereo not given) was 2.53 µM (inactive)

The value of GI50 measured for the molecule CC(OC(=O)C(Cc1ccccc1)NC(=O)C(Cc1ccccc1)NC(=O)OC(C)(C)C)C(=O)OCc1ccccc1 (stereo not drawn) (Boc-Phe-Phe-[Lac]-OBn; configuration not given here) turned out to be > 100 µM (inactive)

The recorded GI50 for OC(C1CO1)C(O)C1CO1 (stereo not given) is 81.3 µM (inactive)

get_value(item= COc1cc(C)cc2c1C(=O)C(Br)=CC2=O , readout=GI50) returns 1.93 µM (inactive)

Value of measured GI50 for the entry Cn1c(=S)c2nc(SCCN3CCCC3)[nH]c2n(C)c1=O : > 100 µM (inactive)

The molecule C=CC[C@@]1(OC(C)=O)C(=O)C(=O)OC1C1COC(C)(C)O1 (stereo not given in full) showed GI50 equal to 15.3 µM (inactive)

Measured GI50, CCOC(=O)/C=C/CC(C)(C)CCOC(C)=O : > 10 µM (inactive)

GI50 recorded for this molecule, COc1ccc(-c2cc(=O)c3c(OC)c(OC)c(OC)c(OC)c3o2)cc1OC [NOBILETIN] , is 36.3 µM (inactive)

// field: GI50; key: C(CCCCc1nnc(N2CCCCC2)o1)CCCc1nnc(N2CCCCC2)o1 ; value = > 100 µM (inactive)

The molecule listed as Cc1ccc(/N=N/C(C(=O)c2ccccc2)C(=O)c2ccccc2)cc1 shows GI50 equal to 17.7 µM (inactive)

Memo: CC(SC(=S)N1CCOCC1)c1cc2oc(=O)n(C)c2cc1Cl (stereo not given) , reported GI50: 33.3 µM (inactive)

// recorded GI50 for CN1CN(c2ccccc2)C2(CCN(CCCSc3ccccc3NC(=O)/C=C/c3ccccc3)CC2)C1=O : 3.85 µM (inactive)

molecule O=C(Nc1c(Cl)cc([N+](=O)[O-])cc1Cl)C(=O)C(C(=O)c1ccncc1)C1OC(=O)c2ccccc21 (stereo not given) , GI50 observed: > 100 µM (inactive)
